testTarget: Phosphatidylinositol 4,5-bisphosphate 3-kinase catalytic subunit alpha isoform (Homo sapiens)
assayName: Inhibition of human PI3Kalpha expressed in Sf9 cells by fluorescent polarization assay
measurementType: pIC50
Please keep in mind that pIC50 is minus log10 of the molar concentration; only the number is needed.

>  <molecule>
CC1(C)CCC[C@]2(C)c3c(oc4c(C=O)c(O)c(O)cc34)CC[C@@H]12 (racemic)

>  <pIC50>
7.18

$$$$
>  <molecule>
C[C@@H]1CC[C@H]2C(C)(C)CCC[C@]2(C)c2c1oc1c(C=O)c(O)c(O)cc21

>  <pIC50>
7.00

$$$$
>  <molecule>
C[C@H]1CC[C@H]2C(C)(C)CCC[C@]2(C)c2c1oc1cc(O)ccc21

>  <pIC50>
5.66

$$$$

(Q) Value lookup for pIC50; key = C[C@@H]1CC[C@H]2C(C)(C)CCC[C@]2(C)c2c1oc1ccc(O)cc21
(A) 5.14

----------
testTarget: Phosphatidylinositol 4,5-bisphosphate 3-kinase catalytic subunit alpha isoform (Homo sapiens, UniProt P42336)
Sequence (P42336 whole entry, canonical isoform): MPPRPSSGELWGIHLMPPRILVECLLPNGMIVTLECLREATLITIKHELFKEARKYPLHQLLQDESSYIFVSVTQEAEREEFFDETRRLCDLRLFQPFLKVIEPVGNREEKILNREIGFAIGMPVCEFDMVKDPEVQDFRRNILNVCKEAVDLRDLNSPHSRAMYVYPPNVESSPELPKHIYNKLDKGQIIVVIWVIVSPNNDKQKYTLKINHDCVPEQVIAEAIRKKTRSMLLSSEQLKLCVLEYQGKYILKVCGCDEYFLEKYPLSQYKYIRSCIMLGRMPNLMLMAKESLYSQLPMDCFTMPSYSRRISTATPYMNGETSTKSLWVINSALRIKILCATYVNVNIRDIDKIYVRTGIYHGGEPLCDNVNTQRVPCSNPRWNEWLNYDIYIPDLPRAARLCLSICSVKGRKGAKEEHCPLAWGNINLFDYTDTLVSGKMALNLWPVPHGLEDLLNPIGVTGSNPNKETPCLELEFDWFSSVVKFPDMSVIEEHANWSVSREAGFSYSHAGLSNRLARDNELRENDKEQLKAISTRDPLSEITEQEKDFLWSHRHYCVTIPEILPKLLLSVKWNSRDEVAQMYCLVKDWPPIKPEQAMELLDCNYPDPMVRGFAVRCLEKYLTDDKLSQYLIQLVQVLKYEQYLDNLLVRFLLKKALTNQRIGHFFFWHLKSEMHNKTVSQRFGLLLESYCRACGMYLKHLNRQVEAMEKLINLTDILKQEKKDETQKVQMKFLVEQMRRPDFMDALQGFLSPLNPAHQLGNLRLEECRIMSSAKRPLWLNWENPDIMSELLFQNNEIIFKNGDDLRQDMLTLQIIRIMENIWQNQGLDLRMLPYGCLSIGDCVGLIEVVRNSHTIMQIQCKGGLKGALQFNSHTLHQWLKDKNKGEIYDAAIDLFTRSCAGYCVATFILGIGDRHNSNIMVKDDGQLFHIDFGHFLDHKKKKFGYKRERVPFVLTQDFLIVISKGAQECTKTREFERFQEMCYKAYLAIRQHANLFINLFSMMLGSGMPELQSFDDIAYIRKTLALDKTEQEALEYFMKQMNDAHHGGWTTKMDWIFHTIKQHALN
assayName: Inhibition of human PI3Kalpha expressed in Sf9 cells by fluorescent polarization assay
measurementType: pIC50
Please keep in mind that pIC50 is minus log10 of the molar concentration; only the number is needed.

Observe how each entry below is paired with its result.
>  <compound>
CC1(C)CCC[C@]2(C)c3c(oc4c(C(N)=O)c(O)c(O)cc34)CC[C@@H]12 (racemic)

>  <measurementType>
pIC50

>  <endpointResult>
6.15

$$$$
>  <compound>
C[C@@H]1CC[C@H]2C(C)(C)CCC[C@]2(C)C2=C3C=C(O)C(=O)C(Br)=C3OC21O (some centres undefined)

>  <measurementType>
pIC50

>  <endpointResult>
5.48

$$$$
>  <compound>
C[C@@H]1CC[C@H]2C(C)(C)CCC[C@]2(C)c2c1oc1c(Br)c(O)ccc21

>  <measurementType>
pIC50

>  <endpointResult>
4.99

$$$$
>  <compound>
COc1cc2c3c(oc2c(C=O)c1OC)CC[C@H]1C(C)(C)CCC[C@]31C (racemic)

>  <measurementType>
pIC50

>  <endpointResult>
5.29

$$$$
>  <compound>
CC1(C)CCC[C@]2(C)C3=C4C=C(O)C(=O)C=C4OC3(O)CC[C@@H]12 (mixture of isomers)

>  <measurementType>
pIC50

>  <endpointResult>
5.78

$$$$
>  <compound>
COc1cc2c3c(oc2c(C=O)c1O)CC[C@H]1C(C)(C)CCC[C@]31C (racemic)

>  <measurementType>
pIC50

>  <endpointResult>
6.00

$$$$

Next up:
(Q) Value lookup for pIC50; key = C[C@@H]1CCCC(C)(C)C12CC[C@H](C)c1oc3c(Br)c(O)c(O)cc3c12 (mixture of isomers)
(A) 6.15

----------
testTarget: Phosphatidylinositol 4,5-bisphosphate 3-kinase catalytic subunit gamma isoform (Homo sapiens, UniProt P48736)
Sequence (P48736 whole entry, canonical isoform): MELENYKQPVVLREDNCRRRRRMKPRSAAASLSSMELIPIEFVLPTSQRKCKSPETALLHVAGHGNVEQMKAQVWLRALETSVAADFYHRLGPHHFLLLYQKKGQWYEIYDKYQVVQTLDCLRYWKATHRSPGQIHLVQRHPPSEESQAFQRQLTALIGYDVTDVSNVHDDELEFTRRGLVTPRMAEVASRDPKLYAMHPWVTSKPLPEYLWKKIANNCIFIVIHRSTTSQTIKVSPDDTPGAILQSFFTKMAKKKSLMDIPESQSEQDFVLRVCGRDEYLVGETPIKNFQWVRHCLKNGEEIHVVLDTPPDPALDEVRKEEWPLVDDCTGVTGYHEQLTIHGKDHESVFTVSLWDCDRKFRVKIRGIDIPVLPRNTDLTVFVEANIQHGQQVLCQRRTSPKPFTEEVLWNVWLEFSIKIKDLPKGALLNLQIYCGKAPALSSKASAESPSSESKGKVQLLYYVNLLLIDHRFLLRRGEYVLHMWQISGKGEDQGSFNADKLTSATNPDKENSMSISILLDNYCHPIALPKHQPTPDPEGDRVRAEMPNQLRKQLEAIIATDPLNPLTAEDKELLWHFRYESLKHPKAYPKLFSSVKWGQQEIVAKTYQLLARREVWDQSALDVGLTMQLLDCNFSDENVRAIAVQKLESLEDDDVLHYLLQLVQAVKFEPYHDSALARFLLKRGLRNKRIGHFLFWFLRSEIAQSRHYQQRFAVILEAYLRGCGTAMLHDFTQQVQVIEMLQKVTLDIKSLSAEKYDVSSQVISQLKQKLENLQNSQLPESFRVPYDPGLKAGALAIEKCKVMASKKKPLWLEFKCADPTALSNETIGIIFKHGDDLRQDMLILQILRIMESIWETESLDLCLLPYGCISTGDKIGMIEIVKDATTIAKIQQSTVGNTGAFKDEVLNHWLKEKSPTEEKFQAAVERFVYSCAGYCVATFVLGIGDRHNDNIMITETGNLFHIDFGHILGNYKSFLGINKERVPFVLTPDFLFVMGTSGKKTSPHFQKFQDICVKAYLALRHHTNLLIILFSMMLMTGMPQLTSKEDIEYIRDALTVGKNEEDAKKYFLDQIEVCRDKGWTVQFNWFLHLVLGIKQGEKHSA
assayName: Inhibition of human PI3Kgamma expressed in Sf9 cells by fluorescent polarization assay
// values below are reported IC50
I only need the number, in µM, no unit after it.

>  <molecule>
C[C@H]1CC[C@H]2C(C)(C)CCC[C@]2(C)c2c1oc1cc(O)ccc21

>  <endpointResult>
2.2

$$$$
>  <molecule>
COc1cc2c3c(oc2c(C=O)c1OC)CC[C@H]1C(C)(C)CCC[C@]31C (racemic)

>  <endpointResult>
2.64

$$$$
>  <molecule>
CC1(C)CCC[C@]2(C)C3=C4C=C(O)C(=O)C=C4OC3(O)CC[C@@H]12 (mixture of isomers)

>  <endpointResult>
9.57

$$$$

(Q) Value lookup for IC50; key = C[C@@H]1CC[C@H]2C(C)(C)CCC[C@]2(C)c2c1oc1ccc(O)cc21
(A) 1.9

----------
testTarget: Phosphatidylinositol 4,5-bisphosphate 3-kinase catalytic subunit gamma isoform (Homo sapiens, UniProt P48736)
assayName: Inhibition of human PI3Kgamma expressed in Sf9 cells by fluorescent polarization assay
Cut-off 2 µM on IC50: below means true, at or above means false.

Solved entries:
>  <compound>
C[C@@H]1CC[C@H]2C(C)(C)CCC[C@]2(C)c2c1oc1c(C=O)c(O)c(O)cc21

>  <answerLabel>
true

$$$$
>  <compound>
COc1cc2c3c(oc2c(C=O)c1O)CC[C@H]1C(C)(C)CCC[C@]31C (racemic)

>  <answerLabel>
false

$$$$
>  <compound>
C[C@@H]1CC[C@H]2C(C)(C)CCC[C@]2(C)c2c1oc1c(Br)c(O)ccc21

>  <answerLabel>
false

$$$$
>  <compound>
C[C@@H]1CC[C@H]2C(C)(C)CCC[C@]2(C)C2=C3C=C(O)C(=O)C(Br)=C3OC21O (stereo partly drawn)

>  <answerLabel>
false

$$$$
>  <compound>
C[C@@H]1CCCC(C)(C)C12CC[C@H](C)c1oc3c(Br)c(O)c(O)cc3c12 (mixture of isomers)

>  <answerLabel>
false

$$$$
>  <compound>
CC1(C)CCC[C@]2(C)c3c(oc4c(C=O)c(O)c(O)cc34)CC[C@@H]12 (racemic)

>  <answerLabel>
true

$$$$
>  <compound>
C[C@@H]1CC[C@H]2C(C)(C)CCC[C@]2(C)c2c1oc1cc(O)ccc21

>  <answerLabel>
false

$$$$

Consider the record given below.
(Q) In plain terms, does CC1(C)CCC[C@]2(C)c3c(oc4c(C(N)=O)c(O)c(O)cc34)CC[C@@H]12 (racemic) come in under 2 µM for IC50?
(A) true
